Cited source for all entries: paper PMC11986180

Test: Pharmacokinetics of aconitine alkaloids in rat plasma after oral administration of Fuzi extract (d-SPE-LC-MS/MS)
Assay type: in vivo, Sprague–Dawley rats
Conditions: n = 6, oral (gastric gavage) 10 mg/kg Fuzi extract, 10 mg/kg
Reported Tmax is given for each of the following compounds.
Quick note: give the figure in min, leave out the unit.

A selection of reference data follows.
## Task Can you look up the measured Tmax of COCC12CN(C)C3C4C(OC)C1C3(C(OC)CC2O)C1CC2(O)C(OC)C(O)C4(OC(C)=O)C1C2OC(=O)c1ccccc1 (centres unmarked) [Mesaconitine] for me?
## Result 45

## Task Can you look up the measured Tmax of CCN1C[C@]2(COC)[C@H](O)C[C@H](OC)[C@@]34[C@@H]5C[C@@]6(O)[C@H](OC(=O)c7ccccc7)[C@@H]5[C@@](OC(C)=O)([C@@H]([C@H](OC)[C@H]23)[C@@H]14)[C@@H](O)[C@@H]6OC [Aconitine] for me?
## Result 30

Others:
## Task Can you look up the measured Tmax of CCN1CC2(COC)C(O)CC(OC)C34C5CC6(O)C(OC)C(O)C(O)(C5C6OC(=O)c5ccccc5)C(C(OC)C23)C14 (centres unmarked) [Benzoylaconitine] for me?
## Result 15

## Task Can you look up the measured Tmax of CCN1CC2(OC(=O)c3ccccc3NC(C)=O)CCC(OC)C34C1C(CC23)C1(O)CC(OC)C2CC4C1(O)C2OC (centres unmarked) [Lappaconitine] for me?
## Result 30

## Task Can you look up the measured Tmax of COC[C@@]12CC[C@H](OC)[C@]34C(C([C@H](OC)[C@H]13)[C@]1(OC(C)=O)[C@H]3[C@@H](OC(=O)c5ccccc5)[C@](O)(C[C@H]34)[C@@H](OC)[C@@H]1O)N(C)C2 [Hypaconitine] for me?
## Result 30

---

Reported Stability RE % is given for each of the following compounds.
Format: physicochemical, rat
Details: Freeze-thaw (three times), plasma QC 50 ng/mL
Method: Aconitine, hypaconitine, mesaconitine, lappaconitine, benzoylaconitine, and yohimbine were individually dissolved in 10 mL of methanol to prepare the stock solution. These compounds were subsequently diluted with methanol to achieve final concentrations of 10 and 5.0 μg/mL to prepare the working standard solutions, which were stored at 4°C before use. […]
Quick note: give the figure in %, leave out the unit.

A selection of reference data follows.
## Task Can you look up the measured Stability RE % of CCN1CC2(COC)C(O)CC(OC)C34C5CC6(O)C(OC)C(O)C(O)(C5C6OC(=O)c5ccccc5)C(C(OC)C23)C14 (stereo not shown) [Benzoylaconitine] for me?
## Result −10.57

## Task Can you look up the measured Stability RE % of COC[C@@]12CC[C@H](OC)[C@]34C(C([C@H](OC)[C@H]13)[C@]1(OC(C)=O)[C@H]3[C@@H](OC(=O)c5ccccc5)[C@](O)(C[C@H]34)[C@@H](OC)[C@@H]1O)N(C)C2 [Hypaconitine] for me?
## Result 3.47

## Task Can you look up the measured Stability RE % of COCC12CN(C)C3C4C(OC)C1C3(C(OC)CC2O)C1CC2(O)C(OC)C(O)C4(OC(C)=O)C1C2OC(=O)c1ccccc1 (stereo not shown) [Mesaconitine] for me?
## Result −7.50

Please find the next compound below.
## Task Can you look up the measured Stability RE % of CCN1C[C@]2(COC)[C@H](O)C[C@H](OC)[C@@]34[C@@H]5C[C@@]6(O)[C@H](OC(=O)c7ccccc7)[C@@H]5[C@@](OC(C)=O)([C@@H]([C@H](OC)[C@H]23)[C@@H]14)[C@@H](O)[C@@H]6OC [Aconitine] for me?
## Result −8.46
